This collection of values is drawn from patent US20060063759A1.

subject of test: glucocorticoid receptor (Homo sapiens)
Sequence (P04150 whole entry): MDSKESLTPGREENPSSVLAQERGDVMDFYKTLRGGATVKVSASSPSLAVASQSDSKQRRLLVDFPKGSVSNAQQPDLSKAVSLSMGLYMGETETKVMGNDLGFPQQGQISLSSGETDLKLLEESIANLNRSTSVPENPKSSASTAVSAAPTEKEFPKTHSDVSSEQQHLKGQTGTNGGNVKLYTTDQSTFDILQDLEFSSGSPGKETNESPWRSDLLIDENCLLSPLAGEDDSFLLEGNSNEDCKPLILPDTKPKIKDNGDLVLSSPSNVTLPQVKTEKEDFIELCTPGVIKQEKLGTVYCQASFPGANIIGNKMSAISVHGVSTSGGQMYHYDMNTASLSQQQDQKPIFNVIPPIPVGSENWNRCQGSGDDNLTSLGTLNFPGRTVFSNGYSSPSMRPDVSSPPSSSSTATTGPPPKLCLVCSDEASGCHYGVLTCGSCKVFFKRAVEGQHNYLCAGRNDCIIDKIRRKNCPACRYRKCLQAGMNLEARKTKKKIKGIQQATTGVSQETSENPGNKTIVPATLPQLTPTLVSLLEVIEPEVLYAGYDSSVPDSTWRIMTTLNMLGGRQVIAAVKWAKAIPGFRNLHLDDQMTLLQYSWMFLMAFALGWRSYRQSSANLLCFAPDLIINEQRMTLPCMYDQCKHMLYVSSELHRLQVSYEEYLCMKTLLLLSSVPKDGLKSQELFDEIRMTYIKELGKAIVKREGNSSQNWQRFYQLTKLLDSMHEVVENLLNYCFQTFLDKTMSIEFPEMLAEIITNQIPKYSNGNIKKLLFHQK
pKi: −log10 of the molar value.
Each record here notes measured pKi.

// query State the recorded pKi for this entry: FC(F)c1ccccc1C=C1c2ccccc2CCc2ccccc21
// result > 6.30

// query Input N#Cc1ccc(C=C2c3ccccc3CCc3cc(F)ccc32)cc1F
// result > 5.00

// query Input N#Cc1ccc2c(c1)CCc1ccccc1/C2=C/c1cccc(O)c1
// result > 6.30

// query Input CS(=O)(=O)Nc1cccc(/C=C2\c3ccccc3C[S+]([O-])c3ccccc32)c1 (centres unmarked)
// result > 6.00

Here is another molecule to look at.
// query State the recorded pKi for this entry: Oc1ccc(C=C2c3ccccc3CCc3ccccc32)cc1
// result > 5.00

* * *

subject of test: human MR (Homo sapiens)
Construct: The full length human MR gene is cloned from a human kidney or human brain cDNA library; His tag from the pAcHLT vector (own knowledge); made in house; host or cells: Sf9 insect cells (baculovirus, pAcHLT transfer vector)
Sequence (P08235 1-984): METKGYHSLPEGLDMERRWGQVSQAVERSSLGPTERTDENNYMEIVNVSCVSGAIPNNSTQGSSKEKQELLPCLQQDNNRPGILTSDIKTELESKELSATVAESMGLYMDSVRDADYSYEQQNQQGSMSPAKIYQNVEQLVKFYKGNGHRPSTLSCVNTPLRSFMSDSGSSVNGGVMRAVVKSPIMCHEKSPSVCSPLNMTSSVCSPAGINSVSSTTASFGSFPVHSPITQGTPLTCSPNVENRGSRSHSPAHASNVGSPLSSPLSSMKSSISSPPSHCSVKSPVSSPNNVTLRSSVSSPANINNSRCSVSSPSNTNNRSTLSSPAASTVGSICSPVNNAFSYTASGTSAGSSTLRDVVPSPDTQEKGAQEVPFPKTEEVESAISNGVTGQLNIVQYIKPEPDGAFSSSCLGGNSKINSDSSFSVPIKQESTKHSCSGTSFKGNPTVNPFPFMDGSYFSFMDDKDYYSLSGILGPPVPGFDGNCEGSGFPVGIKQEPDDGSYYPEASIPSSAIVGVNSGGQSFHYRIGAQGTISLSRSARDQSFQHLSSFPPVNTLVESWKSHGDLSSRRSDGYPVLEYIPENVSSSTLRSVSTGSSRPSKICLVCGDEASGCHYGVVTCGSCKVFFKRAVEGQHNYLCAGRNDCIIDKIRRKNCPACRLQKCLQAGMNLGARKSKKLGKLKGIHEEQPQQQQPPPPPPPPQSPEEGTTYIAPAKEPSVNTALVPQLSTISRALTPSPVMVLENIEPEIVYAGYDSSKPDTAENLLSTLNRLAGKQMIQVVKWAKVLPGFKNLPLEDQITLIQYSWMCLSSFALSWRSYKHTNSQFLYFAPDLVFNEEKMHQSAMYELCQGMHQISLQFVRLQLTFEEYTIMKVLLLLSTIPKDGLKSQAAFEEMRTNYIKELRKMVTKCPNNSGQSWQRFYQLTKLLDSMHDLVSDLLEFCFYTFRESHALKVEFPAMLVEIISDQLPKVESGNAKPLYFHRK
test name: Mineralocorticoid Receptor Binding Assay ([3H]-aldosterone)
test conditions: [3H]-aldosterone binding, human MR expressed in Sf9 cells; read-out: MR Ki
readout label: Ki

Some molecules with known Ki results, for comparison:
// query State the recorded Ki for this entry: CS(=O)(=O)Nc1cccc(/C=C2/c3cccnc3CCc3cccc(F)c32)c1
// result < 500 nM

// query Input CN(c1cccc(/C=C2\c3ccccc3COc3cc(Cl)ccc32)c1)S(C)(=O)=O
// result < 1000 nM

// query Input CS(=O)(=O)Nc1cccc(/C=C2/c3cc(F)ccc3COc3ccccc32)c1
// result < 500 nM

Here is another molecule to look at.
// query State the recorded Ki for this entry: C/C(=C1\c2ccccc2COc2cc(OCC3CC3)ccc21)c1cccc(NS(C)(=O)=O)c1
// result < 500 nM
